protocol-notes: gradient 5% acetonitrile 3 min, to 50% in 2 min, to 85% in 15 min, held 3 min, 100 µL/min
recorded-conditions: column: Zorbax Extend-C18 2.1 x 50 mm; eluents: water / acetonitrile, 0.1% formic acid
Listing: RP-LC retention time of selected compounds

[
  {
    "compound": "CCc1nc2cc3c(cc2n1CC(=O)N1CCOCC1)OCCO3",
    "RP-LC retention time (s)": 567
  },
  {
    "compound": "CN1CCCN(C(=O)Nc2ccc3c(c2)OCCO3)c2ccccc21",
    "RP-LC retention time (s)": 649
  },
  {
    "compound": "Cc1ccc(-c2nnc(-c3cccc(S(=O)(=O)Nc4cccnc4)c3)o2)cc1",
    "RP-LC retention time (s)": 775
  },
  {
    "compound": "COCC(=O)NC/C=C/c1ccc2ncnc(Nc3ccc(Oc4ccc(C)nc4)c(C)c3)c2c1",
    "RP-LC retention time (s)": 622
  },
  {
    "compound": "COC[C@@H]1CN(Cc2ccc(F)c(Cl)c2)C[C@H]1c1nc(C)no1",
    "RP-LC retention time (s)": 580
  },
  {
    "compound": "Nc1nc(N2CCOCC2)ncc1C(=O)NCc1ccccc1F",
    "RP-LC retention time (s)": 626
  },
  {
    "compound": "CNC(=O)Nc1ccc(OC)c(NC(=O)NC(=O)c2cc(F)c(F)cc2Cl)c1",
    "RP-LC retention time (s)": 784
  },
  {
    "compound": "O=C(NC1CCCCCC1)C1CCN(c2nc3ccccc3nc2C(F)(F)F)CC1",
    "RP-LC retention time (s)": 1200
  },
  {
    "compound": "CN(C(=O)Nc1ccccc1)C1CCc2nn(CC3CC3)c(=O)n2CC1 (stereo not given)",
    "RP-LC retention time (s)": 681
  },
  {
    "compound": "O=C1CCCCC(CNC(=O)c2cnccn2)N1 (stereo not given)",
    "RP-LC retention time (s)": 577
  },
  {
    "compound": "CC(C)(C)c1noc(-c2ccnc(-n3cnc(C(=O)N4CCc5ccccc5C4)c3)c2)n1",
    "RP-LC retention time (s)": 1080
  },
  {
    "compound": "CS(=O)(=O)N1CCC2(CC1)CN(c1cccc(F)c1)C2c1ccccc1 (stereo not given)",
    "RP-LC retention time (s)": 1150
  },
  {
    "compound": "CC(C)CN1CCn2cc(C(=O)NCc3ccc(F)cc3F)nc2C1",
    "RP-LC retention time (s)": 608
  },
  {
    "compound": "Clc1ccc2nc(N3CCOCC3)nc(-c3ccccc3)c2c1",
    "RP-LC retention time (s)": 882
  },
  {
    "compound": "Cc1ccc(C)c(S(=O)(=O)N2c3ccccc3CC2c2nc(C(C)C)no2)c1 (stereo not given)",
    "RP-LC retention time (s)": 1230
  },
  {
    "compound": "COCCN1C(=O)CS(=O)C12CCN(C(=O)c1ccsc1)CC2 (stereo not given)",
    "RP-LC retention time (s)": 593
  },
  {
    "compound": "O=C(CSc1ncnc2c1oc1ccccc12)Nc1nc2ccccc2s1",
    "RP-LC retention time (s)": 902
  },
  {
    "compound": "CC(C)[C@H](NC(=O)OCc1ccccc1)C(=O)N[C@H](C=O)Cc1ccccc1",
    "RP-LC retention time (s)": 773
  },
  {
    "compound": "COc1cc(-c2noc(Cn3cnc4c(cnn4-c4ccccc4)c3=O)n2)cc(OC)c1OC",
    "RP-LC retention time (s)": 920
  },
  {
    "compound": "CCSc1nnc(-c2nn(C)c3c2CN(S(=O)(=O)c2ccc(Cl)cc2)CC3)n1CC",
    "RP-LC retention time (s)": 983
  }
]
